- measurement description: AUC in CD1 mouse at 200 mg/kg, po administered as single dose
- Format: ADME, organism-based
- Parameters: dose 200 mg/kg, route oral
- settings: plasma
quantity name: AUC(0-inf)

Illustrative cases are given below, each with its answer.
CCCOc1cccc(-c2[nH]c3cc(OC)ccc3c(=O)c2C(=O)OCC)c1; 7.7 µM·h
CCOC(=O)c1c(-c2ccc3c(c2)OCO3)[nH]c2cc(OC)ccc2c1=O; 65 µM·h
CCOC(=O)c1c(-c2cccc(OC)c2)[nH]c2cc(OC)ccc2c1=O; 7.8 µM·h

Now for a further compound.
Enquiry: // returns reported AUC(0-inf) for input CCOC(=O)c1c(-c2cccc(Br)c2)[nH]c2cc(OC)c(F)cc2c1=O
Return: 160 µM·h
